Target: mouse SMO^W535L (Mus musculus, UniProt P56726, W539L)
Construct: expressed in transfected cells
Sequence (P56726 33-793 W539L): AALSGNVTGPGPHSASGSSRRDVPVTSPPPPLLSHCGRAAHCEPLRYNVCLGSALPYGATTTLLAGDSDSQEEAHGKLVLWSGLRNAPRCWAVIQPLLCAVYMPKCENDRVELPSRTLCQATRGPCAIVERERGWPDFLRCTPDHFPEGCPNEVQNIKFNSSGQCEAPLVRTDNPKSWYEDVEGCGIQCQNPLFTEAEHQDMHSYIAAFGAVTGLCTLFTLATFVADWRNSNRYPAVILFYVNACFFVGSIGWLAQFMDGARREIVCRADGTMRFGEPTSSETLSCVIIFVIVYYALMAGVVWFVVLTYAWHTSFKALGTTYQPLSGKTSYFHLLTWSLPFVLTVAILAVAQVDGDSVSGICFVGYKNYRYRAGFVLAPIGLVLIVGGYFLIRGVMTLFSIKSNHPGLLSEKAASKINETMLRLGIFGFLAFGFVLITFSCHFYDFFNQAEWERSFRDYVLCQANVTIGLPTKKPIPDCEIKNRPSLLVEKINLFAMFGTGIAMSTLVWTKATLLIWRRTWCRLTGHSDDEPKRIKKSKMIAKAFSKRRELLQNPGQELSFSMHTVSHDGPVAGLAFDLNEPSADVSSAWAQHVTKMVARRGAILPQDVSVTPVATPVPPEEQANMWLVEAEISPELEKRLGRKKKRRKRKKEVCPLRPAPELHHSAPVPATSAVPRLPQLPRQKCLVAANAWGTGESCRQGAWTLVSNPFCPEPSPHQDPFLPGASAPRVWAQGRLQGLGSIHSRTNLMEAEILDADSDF
Experiment: Mouse assay: Gli1 qPCR in MEF cells stably expressing mouse SMO W535L
Type: cell-based
Conditions: mSHh-treated, 24 hours, Gli1 inhibition by qPCR, read-out: Mouse W535L pIC50 (converted)
Measurement Name: IC50 (nM)

| Molecule | Units | Numeric Value |
| --- | --- | --- |
| O=C(Nc1ccc(-c2nc(-c3ccccn3)n[nH]2)cc1)c1cccc(CN2CCS(=O)(=O)CC2)c1 | nM | 398 |

1 = O=C(Nc1ccc(-c2nc(C3CC3)n[nH]2)cc1)c1cc(CN2CCS(=O)(=O)CC2)ccc1F
2 = Cc1cc(Cc2n[nH]c(-c3ccc(NC(=O)c4cccc(CN5CCS(=O)(=O)CC5)c4)cc3)n2)ccc1Br
Prompt: Of 1 and 2 , which shows the smaller IC50 value? Reply with the label of the item you choose.
Response: 1

A = Cl.O=C(Nc1ccc(-c2noc(C3CC3)n2)cc1)c1cccc(CN2CCS(=O)(=O)CC2)c1
B = COc1ccc(Cc2n[nH]c(-c3ccc(NC(=O)c4cccc(CN5CCS(=O)(=O)CC5)c4)cc3)n2)cn1
C = O=C(Nc1ccc(-c2nc(-c3cccc(F)c3)n[nH]2)cc1)c1cccc(CN2CCS(=O)(=O)CC2)c1
Prompt: Put the entries in order of IC50, starting with the largest number. Note for the reader: the ranking is given by listing the labels in the order requested.
Response: B, A, C
(B: 501 nM, A: 158 nM, C: 100 nM)

a = Cl.O=C(Nc1ccc(-c2nnc(C3CC3)o2)cc1)c1cccc(CN2CCS(=O)(=O)CC2)c1
b = O=C(Nc1ccc(-c2cc(C3CC3)no2)cc1)c1cccc(CN2CCS(=O)(=O)CC2)c1
c = Cc1c(-c2ccc(NC(=O)c3ccc(Cl)c(CN4CCS(=O)(=O)CC4)c3)cc2)n[nH]c1C1CC1
Prompt: Order the entries by their reported IC50, beginning at the minimum. Note for the reader: the ranking is given by listing the labels in the order requested.
Response: c, b, a

###

Target: mouse SMO^W535L (Mus musculus, UniProt P56726, W539L)
Construct: expressed in transfected cells
Test: Mouse assay: Gli1 qPCR in MEF cells stably expressing mouse SMO W535L; for Mouse W535L % Inh: test concentration or dose not given here
Type: cell-based
Details: mSHh-treated, 24 hours, percentage Gli1 inhibition
Measurement Name: Mouse W535L % Inh (%)

| Structure Smiles String | Mouse W535L % Inh, % |
| --- | --- |
| O=C(Nc1ccc(-c2nc(Cc3ccc(Cl)cc3)n[nH]2)cc1)c1cccc(CN2CCS(=O)(=O)CC2)c1 | 58.2 |
| O=C(Nc1ccc(-c2nc(CC3CC3)n[nH]2)cc1)c1cccc(CN2CCS(=O)(=O)CC2)c1 | 70.7 |
| O=C(Nc1ccc(-c2noc(Cc3ccc(F)cc3)n2)cc1)c1cccc(CN2CCS(=O)(=O)CC2)c1 | 68.6 |

###

Target: mouse SMO^D473H (Mus musculus, UniProt P56726, D477H)
Construct: expressed in transfected cells
Sequence (P56726 33-793 D477H): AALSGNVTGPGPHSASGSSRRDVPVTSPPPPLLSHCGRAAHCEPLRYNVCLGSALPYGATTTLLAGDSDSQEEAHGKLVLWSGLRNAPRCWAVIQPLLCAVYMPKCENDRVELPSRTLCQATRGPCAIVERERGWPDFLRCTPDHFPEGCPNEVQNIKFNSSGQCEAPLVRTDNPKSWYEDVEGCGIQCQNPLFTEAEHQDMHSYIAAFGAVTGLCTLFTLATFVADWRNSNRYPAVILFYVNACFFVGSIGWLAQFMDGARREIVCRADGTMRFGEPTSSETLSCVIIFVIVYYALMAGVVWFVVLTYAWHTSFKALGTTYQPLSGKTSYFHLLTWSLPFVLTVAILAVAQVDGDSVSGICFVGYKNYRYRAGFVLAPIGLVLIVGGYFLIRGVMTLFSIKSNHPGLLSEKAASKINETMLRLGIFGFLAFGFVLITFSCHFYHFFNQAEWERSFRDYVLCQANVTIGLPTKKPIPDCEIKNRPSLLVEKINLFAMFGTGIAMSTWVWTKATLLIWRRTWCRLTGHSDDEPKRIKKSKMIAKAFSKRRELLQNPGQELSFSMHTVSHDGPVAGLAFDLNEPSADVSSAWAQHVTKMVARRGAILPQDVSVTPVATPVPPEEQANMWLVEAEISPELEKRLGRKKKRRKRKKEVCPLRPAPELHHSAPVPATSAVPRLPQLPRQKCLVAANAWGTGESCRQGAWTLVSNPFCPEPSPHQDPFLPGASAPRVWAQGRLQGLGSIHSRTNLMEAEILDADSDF
Experiment: Mouse assay: Gli1 qPCR in MEF cells stably expressing mouse SMO D473H; note: test concentration or dose not given here
Format: cell-based
Conditions: mSHh-treated, 24 hours, percentage Gli1 inhibition
Measurement Name: Mouse D473H % Inh (%)

| Compound | Test Target | Measurement Name | Numeric Value |
| --- | --- | --- | --- |
| Cc1oc(-c2ccc(NC(=O)c3ccc(F)c(CN4CCS(=O)(=O)CC4)c3)cc2)nc1C1CC1 | mouse SMO^D473H (Mus musculus, UniProt P56726, D477H) | Mouse D473H % Inh | 97.4 |
| O=C(Nc1ccc(-c2nc(C3CC3)n[nH]2)cc1)c1cccc(CN2CCSCC2)c1 | mouse SMO^D473H (Mus musculus, UniProt P56726, D477H) | Mouse D473H % Inh | 99.3 |
| Cn1nc(-c2ccc(NC(=O)c3cccc(CN4CCS(=O)(=O)CC4)c3)nc2)cc1C1CC1 | mouse SMO^D473H (Mus musculus, UniProt P56726, D477H) | Mouse D473H % Inh | 93.2 |
| O=C(Nc1ccc(-c2cc(Cc3ccccc3)n[nH]2)cc1)c1cccc(CN2CCS(=O)(=O)CC2)c1 | mouse SMO^D473H (Mus musculus, UniProt P56726, D477H) | Mouse D473H % Inh | 99.4 |
| CC(C)c1n[nH]c(-c2ccc(NC(=O)c3cccc(CN4CCS(=O)(=O)CC4)c3)cc2)n1.Cl | mouse SMO^D473H (Mus musculus, UniProt P56726, D477H) | Mouse D473H % Inh | 96.6 |
| O=C(Nc1ccc(-c2nc(Cc3ccc4c(c3)OCCO4)n[nH]2)cc1)c1cccc(CN2CCS(=O)(=O)CC2)c1 | mouse SMO^D473H (Mus musculus, UniProt P56726, D477H) | Mouse D473H % Inh | 97.7 |
| O=C(Nc1ccc(-c2nc(C3CCCN(Cc4ccccc4)C3)n[nH]2)cc1)c1cccc(CN2CCS(=O)(=O)CC2)c1 (centres unmarked) | mouse SMO^D473H (Mus musculus, UniProt P56726, D477H) | Mouse D473H % Inh | 93.8 |
| O=C(Nc1ccc(-c2cnc(C3CC3)o2)cc1)c1cccc(CN2CCS(=O)(=O)CC2)c1 | mouse SMO^D473H (Mus musculus, UniProt P56726, D477H) | Mouse D473H % Inh | 99.7 |
| O=C(Nc1ccc(-c2nc(CC3CC3)n[nH]2)cc1)c1cccc(CN2CCS(=O)(=O)CC2)c1 | mouse SMO^D473H (Mus musculus, UniProt P56726, D477H) | Mouse D473H % Inh | 97.3 |
| O=C(Nc1ccc(-c2nc(C3CC3)n[nH]2)cc1)c1cccc(CN2CCS(=O)(=O)CC2)c1 | mouse SMO^D473H (Mus musculus, UniProt P56726, D477H) | Mouse D473H % Inh | 89.9 |
| Cc1oc(-c2ccc(NC(=O)c3ccc(Cl)c(CN4CCS(=O)(=O)CC4)c3)cn2)nc1C1CC1 | mouse SMO^D473H (Mus musculus, UniProt P56726, D477H) | Mouse D473H % Inh | 98.1 |
| O=C(Nc1ccc(-c2nc(CCc3ccccc3)n[nH]2)cc1)c1cccc(CN2CCS(=O)(=O)CC2)c1 | mouse SMO^D473H (Mus musculus, UniProt P56726, D477H) | Mouse D473H % Inh | 97.2 |
| O=C(Nc1ccc(-c2nc(C3CC3)n[nH]2)cc1)c1ccc(F)c(CN2CCS(=O)(=O)CC2)c1 | mouse SMO^D473H (Mus musculus, UniProt P56726, D477H) | Mouse D473H % Inh | 93.9 |
| Cc1c(-c2ccc(NC(=O)c3cccc(CN4CCS(=O)(=O)CC4)c3)cc2)nn(C)c1C1CC1 | mouse SMO^D473H (Mus musculus, UniProt P56726, D477H) | Mouse D473H % Inh | 98.6 |
| Cc1oc(-c2ccc(NC(=O)c3cccc(CN4CCS(=O)(=O)CC4)c3)cc2)nc1C1CC1 | mouse SMO^D473H (Mus musculus, UniProt P56726, D477H) | Mouse D473H % Inh | 98.4 |
| Cc1ccc(Cc2n[nH]c(-c3ccc(NC(=O)c4cccc(CN5CCS(=O)(=O)CC5)c4)cc3)n2)cc1 | mouse SMO^D473H (Mus musculus, UniProt P56726, D477H) | Mouse D473H % Inh | 98.1 |
| O=C(Nc1ccc(-c2nc(C3CCN(c4ccccc4)C3)n[nH]2)cc1)c1cccc(CN2CCS(=O)(=O)CC2)c1 (centres unmarked) | mouse SMO^D473H (Mus musculus, UniProt P56726, D477H) | Mouse D473H % Inh | 98.0 |
| O=C(Nc1ccc(-c2nc(Cc3ccc(Cl)cc3)n[nH]2)cc1)c1cccc(CN2CCS(=O)(=O)CC2)c1 | mouse SMO^D473H (Mus musculus, UniProt P56726, D477H) | Mouse D473H % Inh | 95.0 |
| O=C(Nc1ccc(-c2nc(Cc3ccccc3)n[nH]2)cc1)c1cccc(CN2CCS(=O)(=O)CC2)c1 | mouse SMO^D473H (Mus musculus, UniProt P56726, D477H) | Mouse D473H % Inh | 99.0 |
| O=C(Nc1ccc(-c2noc(C3CCC3)n2)cc1)c1cccc(CN2CCS(=O)(=O)CC2)c1 | mouse SMO^D473H (Mus musculus, UniProt P56726, D477H) | Mouse D473H % Inh | 99.0 |
| O=C(Nc1ccc(-c2nc(C3CC3)n[nH]2)cc1)c1cc(Cl)cc(CN2CCS(=O)(=O)CC2)c1 | mouse SMO^D473H (Mus musculus, UniProt P56726, D477H) | Mouse D473H % Inh | 95.4 |
| O=C(Nc1ccc(-c2nc(Cc3ccc(Br)cc3)n[nH]2)cc1)c1cccc(CN2CCS(=O)(=O)CC2)c1 | mouse SMO^D473H (Mus musculus, UniProt P56726, D477H) | Mouse D473H % Inh | 98.5 |
| Cc1ccc(Cc2n[nH]c(-c3ccc(NC(=O)c4cccc(CN5CCS(=O)(=O)CC5)c4)cc3)n2)cc1C | mouse SMO^D473H (Mus musculus, UniProt P56726, D477H) | Mouse D473H % Inh | 97.4 |
